Target: 5-hydroxytryptamine receptor 1A (Rattus norvegicus, UniProt P19327)
Sequence (P19327 whole entry): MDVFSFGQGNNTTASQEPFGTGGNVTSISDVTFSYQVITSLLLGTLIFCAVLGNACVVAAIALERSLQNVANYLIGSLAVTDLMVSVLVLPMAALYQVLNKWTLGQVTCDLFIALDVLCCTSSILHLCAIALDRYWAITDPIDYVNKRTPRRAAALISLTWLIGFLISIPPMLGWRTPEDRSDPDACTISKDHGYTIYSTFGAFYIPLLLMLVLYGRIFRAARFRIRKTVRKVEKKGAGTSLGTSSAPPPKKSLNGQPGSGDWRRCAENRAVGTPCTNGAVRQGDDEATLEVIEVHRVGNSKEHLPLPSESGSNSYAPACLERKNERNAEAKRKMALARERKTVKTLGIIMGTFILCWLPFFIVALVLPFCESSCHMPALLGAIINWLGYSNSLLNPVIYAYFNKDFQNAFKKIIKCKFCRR
Assay: Antagonist activity against rat hippocampal tissue 5-hydroxytryptamine 1A receptor
Type: functional, tissue-based, Hippocampus
pKi: −log10 of the molar value.
Classify by measured pKi: TRUE if it is equal to or exceeds 8, FALSE if it is smaller.

Structure notation: C[C@@]12C[C@@H]3C[C@@H](CC(CC(=O)NCCN4CCN(c5ncccn5)CC4)(C3)C1)C2
Target: 5-hydroxytryptamine receptor 1A (Rattus norvegicus, UniProt P19327)
Group label: FALSE

Structure notation: COc1ccccc1N1CCN(CCOC(=O)C23CC4C[C@@H](C[C@H]2C4)C3)CC1
Target: 5-hydroxytryptamine receptor 1A (Rattus norvegicus, UniProt P19327)
Group label: TRUE

Structure notation: O=C(NCCN1CCN(c2ccc(Cl)cc2)CC1)C12C[C@H]3C[C@@H](C1)C[C@@H](C2)C3
Target: 5-hydroxytryptamine receptor 1A (Rattus norvegicus, UniProt P19327)
Group label: FALSE

Structure notation: O=C(NCCN1CCN(c2ncccn2)CC1)NC12C[C@H]3C[C@@H](C1)C[C@@H](C2)C3
Target: 5-hydroxytryptamine receptor 1A (Rattus norvegicus, UniProt P19327)
Group label: FALSE

Structure notation: COc1ccccc1N1CCN(CCOC(=O)NC23C[C@H]4C[C@@H](C2)C[C@@H](C3)C4)CC1
Target: 5-hydroxytryptamine receptor 1A (Rattus norvegicus, UniProt P19327)
Group label: FALSE

Structure notation: COc1ccccc1N1CCN(CCCOC(=O)C23CC4C[C@@H](C[C@H]2C4)C3)CC1
Target: 5-hydroxytryptamine receptor 1A (Rattus norvegicus, UniProt P19327)
Group label: FALSE

---

Target: D(2) dopamine receptor (Rattus norvegicus, UniProt P61169)
Sequence (P61169 whole entry): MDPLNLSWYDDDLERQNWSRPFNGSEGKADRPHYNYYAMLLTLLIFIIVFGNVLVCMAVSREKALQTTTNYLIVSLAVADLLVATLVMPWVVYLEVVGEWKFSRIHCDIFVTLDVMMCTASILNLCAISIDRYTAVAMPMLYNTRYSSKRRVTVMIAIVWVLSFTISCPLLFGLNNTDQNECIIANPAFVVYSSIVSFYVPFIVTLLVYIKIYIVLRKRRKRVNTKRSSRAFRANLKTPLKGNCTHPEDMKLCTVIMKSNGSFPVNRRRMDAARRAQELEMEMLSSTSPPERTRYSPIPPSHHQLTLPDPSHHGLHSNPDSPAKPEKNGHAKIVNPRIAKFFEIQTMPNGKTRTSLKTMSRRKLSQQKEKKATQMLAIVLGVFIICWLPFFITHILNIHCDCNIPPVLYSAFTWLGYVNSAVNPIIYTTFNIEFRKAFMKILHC
Assay: Inhibitory activity against rat limbic tissue Dopamine receptor D2
pKi: −log10 of the molar value.
pKi: recorded values
Readout: pKi

Structure notation: COc1ccccc1N1CCN(CCOC(=O)C23C[C@H]4C[C@@H](C2)C[C@@H](C3)C4)CC1.Cl.Cl
Inequality symbol: =
Observed value: 7.87
--
Structure notation: COc1ccccc1N1CCN(C[C@@H](C)NC(=O)C23C[C@H]4C[C@@H](C2)C[C@@H](C3)C4)CC1
Inequality symbol: =
Observed value: 7.67
--
Structure notation: Cl.Cl.O=C(N[C@H](Cc1ccccc1)CN1CCN(Cc2ccccc2)CC1)C12C[C@H]3C[C@@H](C1)C[C@@H](C2)C3
Inequality symbol: =
Observed value: 5.85
--
Structure notation: Cl.Cl.O=C(NCCN1CCN(c2cccc(Cl)c2)CC1)C12C[C@H]3C[C@@H](C1)C[C@@H](C2)C3
Inequality symbol: =
Observed value: 6.89
--
Structure notation: COc1ccccc1N1CCN(CCCOC(=O)C23C[C@H]4C[C@@H](C2)C[C@@H](C3)C4)CC1.Cl.Cl
Inequality symbol: =
Observed value: 7.46
--
Structure notation: COc1ccccc1N1CCN(CCCNC(=O)NC23C[C@H]4C[C@@H](C2)C[C@@H](C3)C4)CC1.Cl.Cl
Inequality symbol: =
Observed value: 6.75
--
Structure notation: O=C(N[C@@H](Cc1ccccc1)CN1CCN(c2ncccn2)CC1)C12C[C@H]3C[C@@H](C1)C[C@@H](C2)C3
Inequality symbol: =
Observed value: 5.77
--
Structure notation: O=C(N[C@H](COCc1ccccc1)CN1CCN(Cc2ccccc2)CC1)C12C[C@H]3C[C@@H](C1)C[C@@H](C2)C3
Inequality symbol: =
Observed value: 7.12
--
Structure notation: Cl.Cl.O=C(NCCN1CCN(c2ncccn2)CC1)C12C[C@H]3C[C@@H](C1)C[C@@H](C2)C3
Inequality symbol: =
Observed value: 6.78
--
Structure notation: COc1ccccc1N1CCN(CCNC(=O)C23C[C@H]4C[C@@H](C2)C[C@@H](C3)C4)CC1.Cl.Cl
Inequality symbol: =
Observed value: 7.62
--
Structure notation: Cl.Cl.O=C(NCCCN1CCN(c2ncccn2)CC1)NC12C[C@H]3C[C@@H](C1)C[C@@H](C2)C3
Inequality symbol: <
Observed value: 5.00
--
Structure notation: Cl.Cl.O=C(N[C@@H](Cc1ccccc1)CN1CCN(Cc2ccccc2)CC1)C12C[C@H]3C[C@@H](C1)C[C@@H](C2)C3
Inequality symbol: =
Observed value: 5.47
--
Structure notation: C[C@H](CN1CCN(c2ncccn2)CC1)NC(=O)C12C[C@H]3C[C@@H](C1)C[C@@H](C2)C3
Inequality symbol: =
Observed value: 6.82
--
Structure notation: COc1ccccc1N1CCN(CCCNC(=O)C23C[C@H]4C[C@@H](C2)C[C@@H](C3)C4)CC1.Cl.Cl
Inequality symbol: =
Observed value: 6.70
